# MEASURED TARGET: Histamine H2 (Homo sapiens, UniProt P25021)
# Sequence (P25021 whole entry): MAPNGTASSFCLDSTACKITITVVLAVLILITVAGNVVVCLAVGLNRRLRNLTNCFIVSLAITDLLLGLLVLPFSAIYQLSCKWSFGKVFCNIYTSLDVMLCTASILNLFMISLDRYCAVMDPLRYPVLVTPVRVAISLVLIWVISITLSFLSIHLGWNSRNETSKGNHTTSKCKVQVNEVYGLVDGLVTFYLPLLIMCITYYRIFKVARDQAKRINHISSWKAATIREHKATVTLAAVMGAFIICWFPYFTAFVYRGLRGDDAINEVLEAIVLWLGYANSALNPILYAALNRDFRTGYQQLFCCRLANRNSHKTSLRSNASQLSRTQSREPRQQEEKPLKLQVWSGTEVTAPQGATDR

{"MOLECULE": "c1cn(-c2cc(NC3=NC[C@@]4(CN5CCC4CC5)O3)ncn2)cn1 [BMS-933043]", "MEASURED TARGET": "Histamine H2 (Homo sapiens, UniProt P25021)", "IC50": "> 30 µM"}

###

# PROTOCOL TEXT: Plasma and brain concentrations after dosing
# Assay type: in vivo, rat
# MEASUREMENT PARAMETERS: rat, plasma, sc, 0.3 mg/kg, Rat N40 Gating; 0.30 mg/kg sc; 30 min; read-out: Plasma Mean ± SD

{"SMILES STRING": "c1cn(-c2cc(NC3=NC[C@@]4(CN5CCC4CC5)O3)ncn2)cn1", "concentration at 30 min": "81 nM"}

###

# PROTOCOL TEXT: Plasma and brain concentrations after dosing
# Type: in vivo, mouse
# MEASUREMENT PARAMETERS: mouse, plasma, subcutaneous, 3 mg/kg, Mouse NOR (1-10 mg/kg study); 3 mg/kg sc; 30 min; read-out: Plasma Mean ± SD

{"SMILES STRING": "c1cn(-c2cc(NC3=NC[C@@]4(CN5CCC4CC5)O3)ncn2)cn1", "concentration at 30 min": "1570 nM"}

###

# MEASURED TARGET: MAO-B (Homo sapiens, UniProt P27338)
# Sequence (P27338 1-520): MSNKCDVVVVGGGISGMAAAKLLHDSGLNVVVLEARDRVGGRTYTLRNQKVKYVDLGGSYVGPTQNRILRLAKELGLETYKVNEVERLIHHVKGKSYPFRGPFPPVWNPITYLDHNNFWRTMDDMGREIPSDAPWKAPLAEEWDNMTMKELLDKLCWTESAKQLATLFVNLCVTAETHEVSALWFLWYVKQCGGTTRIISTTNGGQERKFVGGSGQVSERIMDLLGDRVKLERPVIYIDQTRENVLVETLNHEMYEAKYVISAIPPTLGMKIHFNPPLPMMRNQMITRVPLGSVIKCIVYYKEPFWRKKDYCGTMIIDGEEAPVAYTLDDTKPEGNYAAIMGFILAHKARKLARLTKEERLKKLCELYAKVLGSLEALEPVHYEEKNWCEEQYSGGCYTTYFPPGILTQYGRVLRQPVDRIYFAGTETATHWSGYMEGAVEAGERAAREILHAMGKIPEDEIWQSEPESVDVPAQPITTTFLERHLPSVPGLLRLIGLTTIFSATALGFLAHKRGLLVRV
pIC50: −log10 of the molar value.

{"SMILES STRING": "c1cn(-c2cc(NC3=NC[C@@]4(CN5CCC4CC5)O3)ncn2)cn1", "pIC50": "< 4.52"}

###

# PROTOCOL TEXT: Plasma and brain concentrations after dosing
# Assay type: in vivo, rat
# MEASUREMENT PARAMETERS: rat, brain/plasma, sc, 0.56 mg/kg, Rat N40 Gating; 0.56 mg/kg sc; 30 min
MEASURED PROPERTY: Kp at 30 min

{"SMILES STRING": "c1cn(-c2cc(NC3=NC[C@@]4(CN5CCC4CC5)O3)ncn2)cn1", "MEASURED PROPERTY": "Kp at 30 min", "NUMERIC RESULT": 0.3}

###

# MEASURED TARGET: Androgen receptor (Rattus norvegicus, UniProt P15207)
# Sequence (P15207 whole entry S389L): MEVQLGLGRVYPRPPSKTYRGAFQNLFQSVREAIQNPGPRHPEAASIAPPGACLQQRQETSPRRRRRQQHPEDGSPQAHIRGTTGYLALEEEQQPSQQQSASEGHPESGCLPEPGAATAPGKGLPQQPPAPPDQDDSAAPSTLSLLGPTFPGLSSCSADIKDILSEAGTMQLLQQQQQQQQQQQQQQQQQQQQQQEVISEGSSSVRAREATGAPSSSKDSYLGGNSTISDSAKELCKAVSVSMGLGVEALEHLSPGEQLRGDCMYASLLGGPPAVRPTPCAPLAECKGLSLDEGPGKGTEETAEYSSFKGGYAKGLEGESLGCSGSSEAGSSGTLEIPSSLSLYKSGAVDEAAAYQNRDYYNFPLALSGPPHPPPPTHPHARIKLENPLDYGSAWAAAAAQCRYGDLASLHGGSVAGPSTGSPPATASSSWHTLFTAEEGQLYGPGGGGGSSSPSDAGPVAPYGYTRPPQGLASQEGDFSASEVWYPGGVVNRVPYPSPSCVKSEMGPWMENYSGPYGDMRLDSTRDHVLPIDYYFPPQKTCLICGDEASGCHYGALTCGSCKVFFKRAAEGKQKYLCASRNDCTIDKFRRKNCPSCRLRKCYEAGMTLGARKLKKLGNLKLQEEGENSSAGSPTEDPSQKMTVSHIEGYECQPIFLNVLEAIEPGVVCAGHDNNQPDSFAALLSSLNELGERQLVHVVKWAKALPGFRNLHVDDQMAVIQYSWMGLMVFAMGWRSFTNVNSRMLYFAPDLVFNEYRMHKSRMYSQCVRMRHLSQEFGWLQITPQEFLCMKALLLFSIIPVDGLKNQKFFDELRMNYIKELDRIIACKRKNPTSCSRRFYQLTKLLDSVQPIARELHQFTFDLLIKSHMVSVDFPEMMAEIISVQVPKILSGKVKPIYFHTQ

{"COMPOUND": "c1cn(-c2cc(NC3=NC[C@@]4(CN5CCC4CC5)O3)ncn2)cn1 [BMS-933043]", "IC50": "> 150 µM"}
